// data source = patent US12692254B2

pIC50 values, listed per item
tgt: human PAD4 (hPAD4) (Homo sapiens)
test.method.notes: RFMS human PAD4 functional assay (rapid-fire mass spectrum)
assay.conditions: 5 nM hPAD4 enzyme, 250 μM BAEE, 50 μM Calcium; 30 min preincubation, 90 min reaction at 37° C.
The value called pIC50 is obtained by taking minus log10 of the concentration in mol/L.

Q: Returns the measured pIC50 for the input compound. Input: COc1cc(C(=O)N2CC3CCC2[C@@H]3N)cc2nc(-c3cc4ccccc4n3CC3CC3)n(CC3CN(C(=O)c4ccnc(C#N)c4)C3)c12 (stereo partly drawn)
A: 7.33

Q: Record request: pIC50 value, item "COc1cc(C(=O)N2C[C@H](N)C[C@@H](F)C2)cc2nc(-c3cc4cccnc4n3CC3CC3)n(CC3CN(C(=O)c4ccccc4)C3)c12"
A: 7.32

Q: For the compound COc1nccc(N2CCC(Cn3c(-c4cc5cccnc5n4CC4CC4)nc4cc(C(=O)N5CC6CCC5[C@@H]6N)cc(OC)c43)CC2)n1 (stereo partly drawn) , what pIC50 is on record?
A: 6.78

----------
tgt: human PAD4 (hPAD4) (Homo sapiens, UniProt Q9UM07)
Sequence (Q9UM07 whole entry): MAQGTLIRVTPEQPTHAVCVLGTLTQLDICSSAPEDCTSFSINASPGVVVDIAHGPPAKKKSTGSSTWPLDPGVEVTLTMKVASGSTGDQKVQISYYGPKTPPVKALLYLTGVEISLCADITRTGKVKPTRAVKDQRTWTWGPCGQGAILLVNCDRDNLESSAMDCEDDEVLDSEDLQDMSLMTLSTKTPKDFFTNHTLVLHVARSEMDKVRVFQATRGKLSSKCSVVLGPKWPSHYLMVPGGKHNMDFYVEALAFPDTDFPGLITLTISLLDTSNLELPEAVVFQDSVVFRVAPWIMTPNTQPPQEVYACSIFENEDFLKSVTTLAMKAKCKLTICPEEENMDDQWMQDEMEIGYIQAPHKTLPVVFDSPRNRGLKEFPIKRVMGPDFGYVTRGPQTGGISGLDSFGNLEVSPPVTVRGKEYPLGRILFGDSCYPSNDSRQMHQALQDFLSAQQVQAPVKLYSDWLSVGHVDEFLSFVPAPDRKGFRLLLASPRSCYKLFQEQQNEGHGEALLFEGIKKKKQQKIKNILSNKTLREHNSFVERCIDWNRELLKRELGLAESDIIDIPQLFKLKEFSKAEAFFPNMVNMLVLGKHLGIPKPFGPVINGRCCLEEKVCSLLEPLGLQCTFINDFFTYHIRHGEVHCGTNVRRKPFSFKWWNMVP
test.method.notes: RFMS human PAD4 functional assay (rapid-fire mass spectrum)
assay.conditions: 5 nM hPAD4 enzyme, 250 μM BAEE, 50 μM Calcium; 30 min preincubation, 90 min reaction at 37° C.
pIC50: −log10 of the molar value.
Lab note: anything with pIC50 at or over 7 counts as true; the rest go in false.

Record excerpt, results attached:
COc1ccc2cc(-c3nc4cc(C(=O)N5C[C@H]6CC[C@@H]5[C@@H]6N)cc(OC)c4n3CC3CN(c4ccnc(C#N)n4)C3)n(CC3CC3)c2n1 = true
COc1cc(C(=O)N2C[C@H](N)C[C@@H](F)C2)cc2nc(-c3cc4ccccc4n3CC3CC3)n(CC3CN(C(=O)c4cc(C#N)ccc4F)C3)c12 = true

Would you kindly look at the next entry?
Q: Could you please find out whether "COc1cc(C(=O)N2CC(CN)C2)cc2nc(-c3cc4ccccc4n3CC3CC3)n(Cc3cnn(C)c3)c12" has pIC50 that meets 7 or exceeds it?
A: false

----------
tgt: human PAD4 (hPAD4) (Homo sapiens, UniProt Q9UM07)
test.method.notes: RFMS human PAD4 functional assay (rapid-fire mass spectrum)
assay.conditions: 5 nM hPAD4 enzyme, 250 μM BAEE, 50 μM Calcium; 30 min preincubation, 90 min reaction at 37° C.
attribute.measured: IC50 (nM)
I only need the number, in nM, no unit after it.

COc1cc(C(=O)N2CC3CCC2[C@@H]3N)cc2nc(-c3cc4ccccc4n3CC3CC3)n(Cc3cnn(-c4ccc(C)cn4)c3)c12 (stereo partly drawn) = 66
COc1cc(C(=O)N2C[C@H](N)C[C@@H](F)C2)cc2nc(-c3cc4cccnc4n3CC3CC3)n(Cc3cnn(C)c3C)c12 = 158

Q: If you can, please state the reported IC50 value of COc1ncccc1-n1cc(Cn2c(-c3cc4ccccc4n3CC3CC3)nc3cc(C(=O)N4CC5CCC4[C@@H]5N)cc(OC)c32)cn1 (stereo partly drawn) .
A: 66

----------
tgt: UniProtKB Q9UM07
test.method.notes: RFMS human PAD4 functional assay (rapid-fire mass spectrum)
assay.conditions: 5 nM hPAD4 enzyme, 250 μM BAEE, 50 μM Calcium; 30 min preincubation, 90 min reaction at 37° C.
Categorized via IC50: class A (below 30 nM), class B (30 nM to below 50 nM), class C (50 nM or more)

COc1cc(C(=O)N2CC3CCC2[C@@H]3N)cc2nc(-c3cc4cccnc4n3CC3CC3)n(CC3CN(C(=O)[C@H]4C[C@@H]4c4ccccc4)C3)c12 (stereo partly drawn) = class A

Q: Form: Item = "COc1nccc(N2CC(n3c(-c4cc5cccnc5n4CC4CC4)nc4cc(C(=O)N5C[C@H]6CC[C@@H]5[C@@H]6N)cc(OC)c43)C2)n1" ; Class = ?
A: class C

Q: Please let me know in which category the item Cn1cc(Cn2c(-c3cc4cccnc4n3CC3CC3)nc3cc(C(=O)N4CC5CCC4[C@@H]5N)cc(F)c32)cn1 (stereo partly drawn) belongs.
A: class C

Q: # bin lookup: classify COc1cc(C(=O)N2CC3CCC2[C@@H]3N)cc2nc(-c3cc4cccnc4n3CC3CC3)n(Cc3cnn(-c4ncc(Cl)cc4F)c3)c12 (stereo partly drawn) by its IC50
A: class A

Q: # bin label for COc1cc(C(=O)N2CC3CCC2[C@@H]3N)cc2nc(-c3cc4cccnc4n3CC3CC3)n(CC3CN(C(=O)c4ccc(F)cc4F)C3)c12 (stereo partly drawn)
A: class B

Q: Class? Entry: COc1cc(C(=O)N2CC3CCC2[C@@H]3N)cc2nc(-c3cc4cccnc4n3CC3CC3)n(Cc3cnn(-c4cccc(C(F)(F)F)n4)c3)c12 (stereo partly drawn)
A: class A

Q: Determine which band this compound sits in: COc1cc(C(=O)N2CC3CCC2[C@@H]3N)cc2nc(-c3cc4ccccc4n3CC3CC3)n(CC3(F)CN(C(=O)c4ccccc4)C3)c12 (stereo partly drawn)
A: class B

Q: Hi there! Could you help me figure out the category for COc1cc(C(=O)N2C[C@H]3CC[C@@H]2[C@@H]3N)cc2nc(-c3cc4ccccc4n3CC3CC3)n(CC3CN(c4cncnc4C#N)C3)c12 [Example 11] please?
A: class B
